System: 168753-222-R-J1-PDC complex spheroid viability
TEST METHOD NOTES: Anticancer human tumor 168753-222-R-J1-PDC patient-derived bladder carcinoma cell line growth inhibition [CLK]
TEST SETTINGS: second compound 3.16 µM; first compound 3.16 µM; stronger effect = lower value
REPORTED PROPERTY: viability, T/C (%)
The figure you give is taken to be in %; do not add the unit.

COMPOUND	ASSAY TARGET	UNIT STRING	viability, T/C
C=C(F)C(=O)N1CCN(c2nc(OCC3CCCN3C)nc3c2CCN(c2cccc4cccc(Cl)c24)C3)CC1CC#N (stereo not given) + CN1CCN(c2cc(C(=O)Nc3cc4cc(-c5cnn(C)c5)ccc4cn3)ccn2)CC1	168753-222-R-J1-PDC complex spheroid viability	%	0.87
O=c1[nH]cc(F)c(=O)[nH]1 + CN1CCN(c2cc(C(=O)Nc3cc4cc(-c5cnn(C)c5)ccc4cn3)ccn2)CC1	168753-222-R-J1-PDC complex spheroid viability	%	1.18
Nc1ccn(C2OC(CO)C(O)C2(F)F)c(=O)n1 (stereo not given) + CN1CCN(c2cc(C(=O)Nc3cc4cc(-c5cnn(C)c5)ccc4cn3)ccn2)CC1	168753-222-R-J1-PDC complex spheroid viability	%	0.15
CC(=O)O[C@H]1C(=O)[C@@]2(C)[C@H]([C@H](OC(=O)c3ccccc3)[C@]3(O)C[C@H](OC(=O)[C@H](O)[C@@H](NC(=O)c4ccccc4)c4ccccc4)C(C)=C1C3(C)C)[C@]1(OC(C)=O)CO[C@@H]1C[C@@H]2O + CNC(=O)c1ccc(Nc2nc(OC3CCCC3)c3c(-c4ccc5nc(C)oc5c4)c[nH]c3n2)c(OC)c1	168753-222-R-J1-PDC complex spheroid viability	%	29.9

For the next question, use this compound.
Ask: Please look at this compound and report its viability, T/C: COc1cccc2c1C(=O)c1c(O)c3c(c(O)c1C2=O)CC(O)(C(=O)CO)CC3OC1CC(N)C(O)C(C)O1 (stereo not given) + CNC(=O)c1ccc(Nc2nc(OC3CCCC3)c3c(-c4ccc5nc(C)oc5c4)c[nH]c3n2)c(OC)c1
Reply: 2.89

====

Test system: 168753-222-R-J1-PDC complex spheroid viability
TEST METHOD NOTES: Anticancer human tumor 168753-222-R-J1-PDC cell line growth inhibition [CLK]; active means viability on the fitted dose curve at most 10% of control; inactive means the rest;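 also: luminescence signal used as surrogate for viable cell amount; viability measured after seven days of drug exposure; 100% = DMSO vehicle control wells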
TEST SETTINGS: second compound 3.16 µM; first compound 3.16 µM
Source text: A high-throughput screen of multi-cell type tumor spheroids was designed to identify active combinations of […] and targeted small molecules. Complex spheroids include a stromal component modeled by human endothelial cells (HUVEC) and fibroblasts modeled by human mesenchymal stem cells (MSCs). […] Compounds. […] If the clinical Cmax for an agent had not been determined, the highest concentration tested was 10 microM. […]
One label from this list, please: active, inactive

COMPOUND	ASSIGNED CLASS
O=c1[nH]cc(F)c(=O)[nH]1 + CNC(=O)c1ccc(Nc2nc(OC3CCCC3)c3c(-c4ccc5nc(C)oc5c4)c[nH]c3n2)c(OC)c1	inactive

Ask: Lab log entry: CC1(C)CCC(CN2CCN(c3ccc(C(=O)NS(=O)(=O)c4ccc(NCC5CCOCC5)c([N+](=O)[O-])c4)c(Oc4cnc5[nH]ccc5c4)c3)CC2)=C(c2ccc(Cl)cc2)C1 + CNC(=O)c1ccc(Nc2nc(OC3CCCC3)c3c(-c4ccc5nc(C)oc5c4)c[nH]c3n2)c(OC)c1 — outcome as called in the assay?
Reply: inactive

Ask: Could you check what this test reported for CCCS(=O)(=O)Nc1ccc(F)c(C(=O)c2c[nH]c3ncc(-c4ccc(Cl)cc4)cc23)c1F + CNC(=O)c1ccc(Nc2nc(OC3CCCC3)c3c(-c4ccc5nc(C)oc5c4)c[nH]c3n2)c(OC)c1 ?
Reply: inactive

Ask: For COc1ccc([C@@H](O)c2cc(-c3ncnc4cc(N5CCOCC5)ccc34)c(F)cc2Cl)nn1 + CN1CCN(c2cc(C(=O)Nc3cc4cc(-c5cnn(C)c5)ccc4cn3)ccn2)CC1 , which call appears in the assay record?
Reply: active

Ask: For CC1COCCN1c1cc(C2(S(C)(=N)=O)CC2)nc(-c2ccnc3[nH]ccc23)n1 (stereo not given) + CNC(=O)c1ccc(Nc2nc(OC3CCCC3)c3c(-c4ccc5nc(C)oc5c4)c[nH]c3n2)c(OC)c1 , which call appears in the assay record?
Reply: inactive

Every entry's value here was drawn from PubChem BioAssay AID2060626.
